This listing pairs compounds with measured IC50.
Biological target: GDP-bound KRAS protein (aa 1-169), containing both G12C and C118A amino acid substitutions (Homo sapiens (Human), UniProt P01116, C118A/G12C)
Sequence (P01116 other isoform, or with tags, fused parts or gaps G12C/C118A): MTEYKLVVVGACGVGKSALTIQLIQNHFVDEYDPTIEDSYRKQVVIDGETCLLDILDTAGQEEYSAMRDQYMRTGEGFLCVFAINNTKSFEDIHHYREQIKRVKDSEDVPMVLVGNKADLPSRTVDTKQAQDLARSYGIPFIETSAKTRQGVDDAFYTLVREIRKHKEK
Experiment: Coupled Nucleotide Exchange Assay
Assay type: biochemical
Conditions: read-out: Coupled Exchange IC50 (2 h); 2 h compound pre-incubation
ASSAY_ENDPOINT: IC50

C=CC(=O)N1CC(NC(=O)Cn2c(C)c(C(=O)N3CCc4c(ccnc4OC)C3)c3cc(Br)ccc32)C1 :: 510 nM
C=CC(=O)N1CC(NC(=O)Cn2cc(C(C)(O)C(=O)NCc3ccccc3)c3cc(Br)ccc32)C1 (centres unmarked) :: 19400 nM
C=CC(=O)N1CC(NC(=O)Cn2c(C)c(-c3cccc4ncccc34)c3cc(Cl)ccc32)C1 :: 2600 nM
C=CC(=O)N1CC(N(C)C(=O)Cn2c(C3CC3)c(C(=O)N3CCN(c4ccc(C#N)cn4)CC3)c3cc(Cl)cc(C)c32)C1 :: 610 nM
C=CC(=O)N1CC(NC(=O)Cn2ccc3cc(C#N)ccc32)C1 :: > 250000 nM
